Catalogue of log10 IC50 values
system: IgE antibodies of allergic patients; test: EAST inhibition test (IgE reactivity / allergenicity); format: binding, human; details: individual allergic patient serum II/3; read-out: Inhibition value 50% (concentration of the inhibitor at 50% inhibition)
// units: µM (pre-log); metric: IC50; scale: log10

>  <molecule>
r Phl p 5b: recombinant wild type Phl p 5b, 265 amino acids, SEQ ID NO 87 (protein) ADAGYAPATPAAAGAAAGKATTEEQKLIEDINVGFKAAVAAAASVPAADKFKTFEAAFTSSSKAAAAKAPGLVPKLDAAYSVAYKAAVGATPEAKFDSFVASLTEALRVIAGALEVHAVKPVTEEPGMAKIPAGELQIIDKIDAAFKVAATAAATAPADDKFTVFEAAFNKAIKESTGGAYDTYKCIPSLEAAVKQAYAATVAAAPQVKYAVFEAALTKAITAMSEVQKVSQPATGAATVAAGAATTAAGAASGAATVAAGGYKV

>  <log10 IC50>
-1.85

$$$$
>  <molecule>
rPhl p 5b deletion mutant DM3 (deletion A154-T177, A220T) (protein) ADAGYAPATPAAAGAAAGKATTEEQKLIEDINVGFKAAVAAAASVPAADKFKTFEAAFTSSSKAAAAKAPGLVPKLDAAYSVAYKAAVGATPEAKFDSFVASLTEALRVIAGALEVHAVKPVTEEPGMAKIPAGELQIIDKIDAAFKVAATAAGGAYDTYKCIPSLEAAVKQAYAATVAAAPQVKYAVFEAALTKTITAMSEVQKVSQPATGAATVAAGAATTAAGAASGAATVAAGGYKV

>  <log10 IC50>
4.51

$$$$
>  <molecule>
rPhl p 5b point mutant PM1 (N32D, D49L, K50A) (protein) ADAGYAPATPAAAGAAAGKATTEEQKLIEDIDVGFKAAVAAAASVPAALAFKTFEAAFTSSSKAAAAKAPGLVPKLDAAYSVAYKAAVGATPEAKFDSFVASLTEALRVIAGALEVHAVKPVTEEPGMAKIPAGELQIIDKIDAAFKVAATAAATAPADDKFTVFEAAFNKAIKESTGGAYDTYKCIPSLEAAVKQAYAATVAAAPQVKYAVFEAALTKAITAMSEVQKVSQPATGAATVAAGAATTAAGAASGAATVAAGGYKV

>  <log10 IC50>
-1.72

$$$$
>  <molecule>
DM1: deletion mutant of rPhl p 5b (ΔK50-P132, D49→L), SEQ ID NO 91 (protein) ADAGYAPATPAAAGAAAGKATTEEQKLIEDINVGFKAAVAAAASVPAALAGELQIIDKIDAAFKVAATAAATAPADDKFTVFEAAFNKAIKESTGGAYDTYKCIPSLEAAVKQAYAATVAAAPQVKYAVFEAALTKAITAMSEVQKVSQPATGAATVAAGAATTAAGAASGAATVAAGGYKV

>  <log10 IC50>
-1.77

$$$$

Briefly, log10 IC50 measured for n Phl p 5b: purified natural allergen Phl p 5b of timothy grass (Phleum pratense), reference of the EAST inhibition (protein) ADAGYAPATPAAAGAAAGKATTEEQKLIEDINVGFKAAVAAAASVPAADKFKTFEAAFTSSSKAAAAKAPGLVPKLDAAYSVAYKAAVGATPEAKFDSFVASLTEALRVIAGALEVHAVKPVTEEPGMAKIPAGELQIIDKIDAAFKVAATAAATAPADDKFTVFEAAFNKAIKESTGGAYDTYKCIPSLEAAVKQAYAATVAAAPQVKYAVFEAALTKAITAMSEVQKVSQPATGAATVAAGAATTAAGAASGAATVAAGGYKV : -2.23
